Reported cell viability values for the following molecules.
tested on: SEM cells; experiment: cell viability relative to DMSO control; higher = less cytotoxic; settings: HPLM + 10% dialyzed FBS; 48 h; 15.4 µM
# number only, unit % dropped from output

// solved cases for cell viability follow
INSERT INTO measurements (record_smiles, target_under_test, property_label, value_measured) VALUES
  ('O=C1N\N=C(\C[C@@H]2CCN(C2)C(=O)C3CC3)N1C4=CC=C(C=C4)C5=CC=C6OC=CC6=C5', 'SEM cells', 'cell viability', 37.1),
  ('CO[C@H]1C[C@H]2OC[C@@]2(OC(C)=O)[C@H]3[C@H](OC(=O)C4=CC=CC=C4)[C@]5(O)C[C@H](OC(=O)[C@H](O)[C@@H](NC(=O)OC(C)(C)C)C6=CC=CC=C6)/C(=C(/[C@@H](OC)C(=O)[C@]13C)C5(C)C)C', 'SEM cells', 'cell viability', 13.6);

Then there is this molecule:
## Task cell viability lookup needed for CN1CCC(=C2c3ccccc3CCc3sccc32)CC1 , thanks.
## Result 95.8
